system: TFEB; assay: TFEB nuclear translocation assay, HeLa wt cells; format: cell-based; details: Homo sapiens, HeLa, 2 h, 2 hrs compound treatment, Table 1 does not say HeLa wt or TRPML1 KO
measurement kind: AC50

- compound: "Cc1ccc([S+]([O-])c2ccccc2N2CCC(c3ccc(Cl)cc3F)CC2)cc1 (stereo not shown)"
  readout value: "≥ 10 µM"
- compound: "CN(C)S(=O)(=O)c1ccc(S(=O)(=O)Nc2ccccc2N2CCN(C(=O)[C@@H]3C[C@@H]4CC[C@H]3O4)CC2)cc1 (racemic)"
  readout value: "2.01 to 8 µM"
- compound: "O=S(=O)(Nc1cc(Cl)ccc1N1CCCC2(CCCCO2)C1)c1ccc2c(c1)CCC2 (stereo not shown)"
  readout value: "2.01 to 8 µM"
- compound: "CN(C)S(=O)(=O)c1ccc(S(=O)(=O)Nc2ccccc2N2CCC3(CC2)OCc2cc(F)ccc23)cc1"
  readout value: "≤ 2 µM"
- compound: "CC(c1ccncc1N1CCC(CN2C[C@@H](C)O[C@@H](C)C2)CC1)S(=O)(=O)c1ccc(S(=O)(=O)N(C)C)cc1 (stereo partly shown)"
  readout value: "2.01 to 8 µM"
- compound: "CC1(C)CC2(CCN(c3ccccc3NS(=O)(=O)c3ccc(Br)cc3)CC2)CO1"
  readout value: "2.01 to 8 µM"
- compound: "CC1(C)CC2(CCN(c3ccccc3NS(=O)(=O)c3ccn(C4CC4(F)F)n3)CC2)CO1 (stereo not shown)"
  readout value: "≥ 10 µM"

----------
test system: TFEB; test: TFEB nuclear translocation assay, HeLa wt cells; type: cell-based; details: Homo sapiens, HeLa, 2 h, 2 hrs compound treatment, Table 1 does not say HeLa wt or TRPML1 KO

- molecule: "CN(C)S(=O)(=O)c1ccc(S(=O)(=O)Nc2ccccc2N2CCN(C(=O)C3(C)CC(F)(F)C3)CC2)cc1 [Compound A-478]"
  AC50: "2.01 to 8 µM"
- molecule: "COCC1(C)CCN(c2ccccc2NS(=O)(=O)c2ccc(C(C)(C)C(=O)OC)cc2)CC1 [Compound A-705]"
  AC50: "8.01 to 9.99 µM"
- molecule: "O=S(=O)(Nc1ccccc1N1CCC(c2ccc(F)cc2F)CC1)c1ccc(C(F)F)nc1 [Compound A-136]"
  AC50: "≤ 2 µM"
- molecule: "Cc1nocc1S(=O)(=O)Nc1ccccc1N1CCN(c2ccc(Cl)cc2F)CC1 [Compound A-35]"
  AC50: "≥ 10 µM"
- molecule: "O=S(=O)(Nc1cc(Cl)ccc1N1CCC2(CCCO2)CC1)c1ccc2c(c1)CCC2 [Compound A-328]"
  AC50: "≥ 10 µM"
- molecule: "CN(C)S(=O)(=O)c1ccc(S(=O)(=O)Cc2ccccc2N2CCC(c3c(F)cccc3F)CC2)cc1 [Compound A-229]"
  AC50: "≤ 2 µM"
- molecule: "CN1CC2(CCN(c3ccccc3NS(=O)(=O)c3ccc(S(=O)(=O)N(C)C)cc3)CC2)c2ncccc21 [Compound A-271]"
  AC50: "≤ 2 µM"
- molecule: "O=S(=O)(Nc1cccc(Cl)c1N1CCN(c2ccc(Cl)cc2F)CC1)c1ccc2c(c1)CCC2 [Compound A-288]"
  AC50: "≤ 2 µM"
- molecule: "CC1(C)Cc2cc(S(=O)(=O)Nc3ccccc3N3CCCC34CCCOC4)ccc2O1 (stereo not drawn) [Compound A-640]"
  AC50: "2.01 to 8 µM"
- molecule: "CCCOc1ccc(S(=O)(=O)Nc2ccccc2N2CCN(C(=O)C(C)(C)C)CC2)cc1 [Compound A-573]"
  AC50: "8.01 to 9.99 µM"
- molecule: "CC(C1CCN(c2c(F)cccc2NS(=O)(=O)c2ccc(S(=O)(=O)N(C)C)cc2)CC1)N1C[C@@H](C)O[C@@H](C)C1 (stereo partly drawn) [Compound A-748]"
  AC50: "≤ 2 µM"
- molecule: "COCC1(C)CCN(c2c(F)cccc2NS(=O)(=O)c2ccc(S(=O)(=O)N(C)C)cc2)CC1 [Compound A-681]"
  AC50: "≤ 2 µM"
- molecule: "Cc1ccc(S(=O)(=O)Nc2cccc(F)c2N2CCC(CN3C4COCC3C4)CC2)cc1 [Compound A-889]"
  AC50: "2.01 to 8 µM"
- molecule: "C[C@@H]1CN(CC2CCN(c3ccccc3NS(=O)(=O)c3ccc(S(=O)(=O)N(C)C)cc3)CC2)C[C@H](C)O1 [Compound A-544]"
  AC50: "≤ 2 µM"
- molecule: "O=S(=O)(Nc1cc(Cl)ccc1N1CCOC2(CCOCC2)C1)c1ccc2c(c1)CCC2 [Compound A-343]"
  AC50: "2.01 to 8 µM"

----------
system: TFEB; experiment: TFEB nuclear translocation assay, HeLa wt cells; format: cell-based; conditions: Homo sapiens, HeLa, 2 h, 2 hrs compound treatment, Table 1 does not say HeLa wt or TRPML1 KO
Reported AC50 by item:

- molecule: "CCS(=O)(=O)c1ccc(S(=O)(=O)Nc2ccccc2N2CCC(c3c(F)cccc3F)CC2)cc1"
  tested system: "TFEB"
  AC50: "≤ 2000 nM"
- molecule: "COCC1(C)CC2CCC(C1)N2c1ccccc1NS(=O)(=O)c1ccc(S(=O)(=O)N(C)C)cc1 (stereo not shown)"
  tested system: "TFEB"
  AC50: "≤ 2000 nM"
- molecule: "O=S(=O)(Nc1ccccc1N1CCC(c2ccc(Cl)cc2F)CC1)c1ccc(C(F)(F)F)c(F)c1"
  tested system: "TFEB"
  AC50: "≤ 2000 nM"
- molecule: "CN(C)S(=O)(=O)c1ccc(S(=O)(=O)Nc2cccc(Cl)c2N2CCOCC2)nc1"
  tested system: "TFEB"
  AC50: "≥ 10000 nM"
- molecule: "CN(C)S(=O)(=O)c1ccc(S(=O)(=O)Nc2ccccc2N2CCN(c3ccncc3F)CC2)cc1"
  tested system: "TFEB"
  AC50: "2010 to 8000 nM"
- molecule: "CC(O)C1(C)CCN(c2ccccc2NS(=O)(=O)c2ccc(S(=O)(=O)N(C)C)cc2)CC1 (stereo not shown)"
  tested system: "TFEB"
  AC50: "2010 to 8000 nM"
- molecule: "COCC1(C)CCN(c2ccccc2NS(=O)(=O)Cc2cccc(Cl)c2)CC1"
  tested system: "TFEB"
  AC50: "2010 to 8000 nM"
- molecule: "COC(C)(C)c1ccc(S(=O)(=O)Nc2ccccc2N2CCC3(CC2)COC(C)(C)C3)cc1"
  tested system: "TFEB"
  AC50: "2010 to 8000 nM"
- molecule: "CN(C)S(=O)(=O)c1ccc(S(=O)(=O)Nc2ccccc2N2CCC(C(F)F)CC2)cc1"
  tested system: "TFEB"
  AC50: "≤ 2000 nM"
- molecule: "CC1(C)CC2(CCN(c3ccccc3NS(=O)(=O)c3ccc4c(c3)CC(C)(C)C4=O)CC2)CO1"
  tested system: "TFEB"
  AC50: "2010 to 8000 nM"
- molecule: "O=C1COCCN1c1ccc(Cl)cc1NS(=O)(=O)c1ccc2c(c1)CCC2"
  tested system: "TFEB"
  AC50: "≥ 10000 nM"
- molecule: "CN(C)S(=O)(=O)c1ccc(S(=O)(=O)Nc2cc(Cl)ccc2N2CCOCC2)cc1"
  tested system: "TFEB"
  AC50: "≥ 10000 nM"
- molecule: "CN(C)S(=O)(=O)c1ccc(S(=O)(=O)Nc2ccccc2N2CCC(c3ccccc3F)CC2)cc1"
  tested system: "TFEB"
  AC50: "≤ 2000 nM"
- molecule: "CC(=O)NC1(c2ccc(Cl)cc2F)CCN(c2ccccc2NS(=O)(=O)c2ccc(S(=O)(=O)N(C)C)cc2)CC1"
  tested system: "TFEB"
  AC50: "2010 to 8000 nM"
- molecule: "Cc1ccc(S(=O)(=O)Nc2ccccc2N2CCN(C(=O)C(O)c3ccccc3)CC2)cc1 (stereo not shown)"
  tested system: "TFEB"
  AC50: "≥ 10000 nM"
- molecule: "COc1cccc(S(=O)(=O)Nc2cccc(Cl)c2N2CCOCC2)c1"
  tested system: "TFEB"
  AC50: "2010 to 8000 nM"

----------
tested on: TFEB; assay: TFEB nuclear translocation assay, HeLa wt cells; format: cell-based; conditions: Homo sapiens, HeLa, 2 h, 2 hrs compound treatment, Table 1 does not say HeLa wt or TRPML1 KO

- compound smiles: "Cc1cc(C)cc(CS(=O)(=O)Nc2ccccc2N2CCN(C(=O)C(C)(C)C)CC2)c1"
  AC50: "2010 to 8000 nM"
- compound smiles: "CC(C)(C)C(=O)N1CCN(c2ccccc2NS(=O)(=O)c2ccc(SC(F)(F)F)cc2)CC1"
  AC50: "2010 to 8000 nM"
- compound smiles: "COCCOCC1(C)CCN(c2ccccc2NS(=O)(=O)c2ccc(S(=O)(=O)N(C)C)cc2)CC1"
  AC50: "≤ 2000 nM"
